- ASSAY_SUMMARY: Liver Microsome Stability Assay (monkey)
- CONDITION_LABEL: monkey liver microsomes, with NADPH, 1.0 uM compound
Liver Microsome Stability (Multiple Species): Monkey - % Remaining after 30 min w/NADPH less than 1% is Y; Liver Microsome Stability (Multiple Species): Monkey - % Remaining after 30 min w/NADPH greater than or equal to 1% is N.

CHEMICAL_SMILES: N#CCn1cnc(/C=C/c2csc(NC(=O)c3cccn3Cc3ccnc(F)c3)n2)c1
QUALITATIVE_LABEL: N
//
CHEMICAL_SMILES: Cc1cc(/C=C/c2csc(NC(=O)c3cccn3Cc3ccnc(F)c3)n2)no1
QUALITATIVE_LABEL: N
//
CHEMICAL_SMILES: NC(=O)CCn1cccc1C(=O)Nc1nc([C@H]2CCCN2c2ccccc2)cs1
QUALITATIVE_LABEL: N

Problem: Is the reported Liver Microsome Stability (Multiple Species): Monkey - % Remaining after 30 min w/NADPH for `O=C(Nc1nc([C@H]2CCCN2c2ccccc2)cs1)c1cccn1Cc1ccnnc1` strictly below 1%?
Result: Y

Problem: State whether 1% exceeds Liver Microsome Stability (Multiple Species): Monkey - % Remaining after 30 min w/NADPH recorded for `CCc1ccc(N2CCC[C@@H]2c2csc(NC(=O)c3cccn3Cc3ccnc(F)c3)n2)cc1` .
Result: N

Problem: Does this compound meet the criterion Liver Microsome Stability (Multiple Species): Monkey - % Remaining after 30 min w/NADPH < 1%? `CC(C)n1cnc(/C=C/c2csc(NC(=O)c3cccn3Cc3ccnc(F)c3)n2)c1`
Result: Y
